System: human PGC-1α promoter
Assay: Modulation of the human PGC-1α promoter activity (luciferase reporter, Hep G2)
Type: cell-based
Details: Hep G2 transfected with luciferase under human PGC-1α promoter; peptide 0.5 mg/mL, 24 hours; normalized to carrier = 100%
Quantity kind: Activity of the PGC-1α promoter (%)
Answer in %, number only, no unit symbol.

Some entries whose results are on file:
{"columns": ["Substance", "Units label", "Activity of the PGC-1α promoter (%)"],
 "data": [
  ["Ac-L-Ser-L-Ile-L-Tyr-L-Val-Gly-L-Val-NH2 (Ac-SIYVGV-NH2) [Ac-SEQ ID NO. 42-NH2]", "%", 64],
  ["Ac-L-Ser-L-Ile-L-Val-L-Val-Gly-L-Val-NH2 (Ac-SIVVGV-NH2) [Ac-SEQ ID NO. 46-NH2]", "%", 78],
  ["Ac-L-His-L-Val-L-Val-L-Val-L-Ala-L-Thr-NH2 (Ac-HVVVAT-NH2) [Ac-SEQ ID NO. 8-NH2]", "%", 89],
  ["Ac-L-Ser-L-Val-L-Tyr-L-Val-Gly-L-Thr-NH2 (Ac-SVYVGT-NH2) [Ac-SEQ ID NO. 20-NH2]", "%", 76],
  ["Ac-L-His-L-Ile-L-Tyr-L-Val-L-Ala-L-Val-NH2 (Ac-HIYVAV-NH2) [Ac-SEQ ID NO. 25-NH2]", "%", 76]
]}

Form field, Activity of the PGC-1α promoter (%) with human PGC-1α promoter, item Ac-L-Ser-L-Val-L-Tyr-L-Val-L-Arg-L-Thr-NH2 (Ac-SVYVRT-NH2) [Ac-SEQ ID NO. 13-NH2] : 131

Response field Activity of the PGC-1α promoter (%) (human PGC-1α promoter) for item Ac-L-Ser-L-Ile-L-Tyr-L-Val-L-Arg-L-Thr-NH2 (Ac-SIYVRT-NH2) [Ac-SEQ ID NO. 11-NH2] : 151

Item Ac-L-Ser-L-Ile-L-Val-L-Val-L-Ala-L-Val-NH2 (Ac-SIVVAV-NH2) [Ac-SEQ ID NO. 30-NH2] was tested on human PGC-1α promoter; the reported Activity of the PGC-1α promoter (%) is 120

Record for Ac-L-His-L-Ile-L-Val-L-Val-L-Arg-L-Val-NH2 (Ac-HIVVRV-NH2) [Ac-SEQ ID NO. 37-NH2] under target or system human PGC-1α promoter: Activity of the PGC-1α promoter (%) reported as 118

----------
Test system: human PGC-1α promoter
Experiment: Modulation of the human PGC-1α promoter activity (luciferase reporter, Hep G2)
Format: cell-based
Conditions: Hep G2 transfected with luciferase under human PGC-1α promoter; peptide 0.5 mg/mL, 24 hours; normalized to carrier = 100%
Catalogue of Activity of the PGC-1α promoter (%) readings, one per entry.
Enter your answer as a number in %; do not include the unit.

Look over these answered cases.
{"columns": ["Substance", "Target under test", "Activity of the PGC-1α promoter (%)"],
 "data": [
  ["Ac-L-Ser-L-Ile-L-Val-L-Val-L-Arg-L-Thr-NH2 (Ac-SIVVRT-NH2) [Ac-SEQ ID NO. 15-NH2]", "human PGC-1α promoter", 150],
  ["Ac-L-Ser-L-Ile-L-Val-L-Val-L-Arg-L-Val-NH2 (Ac-SIVVRV-NH2) [Ac-SEQ ID NO. 38-NH2]", "human PGC-1α promoter", 180],
  ["Ac-L-His-L-Ile-L-Val-L-Val-Gly-L-Thr-NH2 (Ac-HIVVGT-NH2) [Ac-SEQ ID NO. 21-NH2]", "human PGC-1α promoter", 110],
  ["Ac-L-His-L-Ile-L-Val-L-Val-L-Ala-L-Thr-NH2 (Ac-HIVVAT-NH2) [Ac-SEQ ID NO. 6-NH2]", "human PGC-1α promoter", 72],
  ["Ac-L-Ser-L-Ile-L-Val-L-Val-L-Ala-L-Thr-NH2 (Ac-SIVVAT-NH2) [Ac-SEQ ID NO. 7-NH2]", "human PGC-1α promoter", 145]
]}

Here is another substance to look at.
Sure, the documented Activity of the PGC-1α promoter (%) for Ac-L-Ser-L-Val-L-Val-L-Val-Gly-L-Thr-NH2 (Ac-SVVVGT-NH2) [Ac-SEQ ID NO. 24-NH2] is 90
